- target_entity: UniProt P11712
- measurement_protocol: Reversible CYP inhibition in human liver microsomes
- condition_details: human, microsomes, pH 7.4, Percent of Control Activity, CYP 2C9, 20.5 µM, Zero-Minute Preincubation
measurement_label: activity at 20.5 µM

For the compound shown here, COc1cccc2[nH]c(C(=O)N[C@@H](CC(C)C)C(=O)N[C@@H](C[C@@H]3CCNC3=O)C(=O)CO)cc12 , give the reported activity at 20.5 µM.
104%

---

- measurement_protocol: Liver S9 binding by equilibrium dialysis
- condition_details: human, human liver S9, fu, human liver S9 binding, individual replicates
measurement_label: fraction unbound at 6 h
I only need the number, thanks.

For the compound shown here, COc1cccc2[nH]c(C(=O)N[C@@H](CC(C)C)C(=O)N[C@@H](C[C@@H]3CCNC3=O)C(=O)COP(=O)(O)O)cc12 , give the reported fraction unbound at 6 h.
0.867

---

- target_entity: CYP2C9 (Homo sapiens, UniProt P11712)
- Sequence (P11712 whole entry): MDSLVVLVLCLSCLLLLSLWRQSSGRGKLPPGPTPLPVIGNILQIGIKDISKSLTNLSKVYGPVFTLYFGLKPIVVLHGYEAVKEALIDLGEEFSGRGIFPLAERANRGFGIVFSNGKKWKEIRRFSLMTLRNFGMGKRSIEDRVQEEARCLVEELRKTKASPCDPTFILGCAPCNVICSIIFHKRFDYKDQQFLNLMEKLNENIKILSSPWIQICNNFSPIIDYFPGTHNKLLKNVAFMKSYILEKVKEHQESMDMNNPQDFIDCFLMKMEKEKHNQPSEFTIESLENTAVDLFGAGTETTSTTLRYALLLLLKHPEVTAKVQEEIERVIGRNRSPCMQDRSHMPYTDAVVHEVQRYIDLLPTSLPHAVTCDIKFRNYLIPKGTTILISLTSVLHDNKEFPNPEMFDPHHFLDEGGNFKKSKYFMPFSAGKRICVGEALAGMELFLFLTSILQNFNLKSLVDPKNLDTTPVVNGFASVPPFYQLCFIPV
- measurement_protocol: Reversible CYP inhibition in human liver microsomes
- condition_details: human, microsomes, pH 7.4, Percent of Control Activity, CYP 2C9, 0.01 µM, Zero-Minute Preincubation
measurement_label: activity at 0.01 µM (%)
Your answer is read as %, so omit the unit and give the number.

For the molecule shown here, COc1cccc2[nH]c(C(=O)N[C@@H](CC(C)C)C(=O)N[C@@H](C[C@@H]3CCNC3=O)C(=O)COP(=O)(O)O)cc12 , give the reported activity at 0.01 µM.
98.2

---

- measurement_protocol: Dog pharmacokinetic study
- condition_details: male, Beagle, dog, plasma, iv, […], Half life, Mean Data, PF-07304814 prodrug dosed […] intravenous, mean
measurement_label: half-life (min)
Your answer is read as min, so omit the unit and give the number.

For the molecule shown here, COc1cccc2[nH]c(C(=O)N[C@@H](CC(C)C)C(=O)N[C@@H](C[C@@H]3CCNC3=O)C(=O)COP(=O)(O)O)cc12 , give the reported half-life.
30.6

---

- target_entity: CYP2C9 (Homo sapiens, UniProt P11712)
- measurement_protocol: Reversible CYP inhibition in human liver microsomes
- condition_details: human, microsomes, pH 7.4, Percent of Control Activity, CYP 2C9, 0.398 µM, Zero-Minute Preincubation
measurement_label: activity at 0.398 µM (%)
Your answer is read as %, so omit the unit and give the number.

Form field: activity at 0.398 µM recorded for COc1cccc2[nH]c(C(=O)N[C@@H](CC(C)C)C(=O)N[C@@H](C[C@@H]3CCNC3=O)C(=O)COP(=O)(O)O)cc12 with CYP2C9 (Homo sapiens, UniProt P11712) (enter value)
102

---

- target_entity: CYP2C8 (Homo sapiens, UniProt P10632)
- Sequence (P10632 1-490): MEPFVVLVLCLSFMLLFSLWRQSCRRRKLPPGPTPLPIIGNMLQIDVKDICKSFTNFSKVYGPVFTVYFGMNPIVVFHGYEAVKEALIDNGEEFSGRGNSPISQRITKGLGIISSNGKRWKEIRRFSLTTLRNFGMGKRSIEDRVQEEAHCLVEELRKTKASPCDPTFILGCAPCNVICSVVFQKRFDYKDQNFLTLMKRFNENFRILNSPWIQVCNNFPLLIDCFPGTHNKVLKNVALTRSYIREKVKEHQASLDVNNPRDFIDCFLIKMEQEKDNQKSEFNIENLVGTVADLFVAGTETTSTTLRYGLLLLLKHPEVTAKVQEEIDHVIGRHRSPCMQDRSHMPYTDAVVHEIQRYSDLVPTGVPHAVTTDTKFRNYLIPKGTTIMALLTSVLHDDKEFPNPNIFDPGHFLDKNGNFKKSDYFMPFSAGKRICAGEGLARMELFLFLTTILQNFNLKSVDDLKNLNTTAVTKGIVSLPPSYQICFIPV
- measurement_protocol: Reversible CYP inhibition in human liver microsomes
- condition_details: human, microsomes, pH 7.4, Percent of Control Activity, CYP 2C8, 0.979 µM, Zero-Minute Preincubation
measurement_label: activity at 0.979 µM (%)
Your answer is read as %, so omit the unit and give the number.

For the molecule shown here, COc1cccc2[nH]c(C(=O)N[C@@H](CC(C)C)C(=O)N[C@@H](C[C@@H]3CCNC3=O)C(=O)CO)cc12 [PF-00835231] , give the reported activity at 0.979 µM.
108

---

- measurement_protocol: Dog pharmacokinetic study
- condition_details: male, Beagle, dog, plasma, iv, Vdss, dog IV (n=2, range); PF-07304814 […], PF-00835231 1.0mg/kg
measurement_label: Vd (L/kg)
Your answer is read as L/kg, so omit the unit and give the number.

For the molecule shown here, COc1cccc2[nH]c(C(=O)N[C@@H](CC(C)C)C(=O)N[C@@H](C[C@@H]3CCNC3=O)C(=O)COP(=O)(O)O)cc12 , give the reported Vd.
9.3

---

- measurement_protocol: Plasma protein binding by equilibrium dialysis
- condition_details: monkey, plasma, pH 7.4, Fraction unbound, Geomean, Monkey plasma, 5.0 uM, n 12
measurement_label: fraction unbound at 6 h, 5 uM
I only need the number, thanks.

For the compound shown here, COc1cccc2[nH]c(C(=O)N[C@@H](CC(C)C)C(=O)N[C@@H](C[C@@H]3CCNC3=O)C(=O)CO)cc12 [PF-00835231] , give the reported fraction unbound at 6 h, 5 uM.
0.441

---

- target_entity: CYP1A2 (Homo sapiens)
- measurement_protocol: Reversible CYP inhibition in human liver microsomes
- condition_details: human, microsomes, pH 7.4, Percent of Control Activity, CYP 1A2, 0.398 µM, 30-Minute Preincubation
measurement_label: activity at 0.398 µM (%)
Your answer is read as %, so omit the unit and give the number.

Form field: activity at 0.398 µM recorded for COc1cccc2[nH]c(C(=O)N[C@@H](CC(C)C)C(=O)N[C@@H](C[C@@H]3CCNC3=O)C(=O)COP(=O)(O)O)cc12 [PF-07304814] with CYP1A2 (Homo sapiens) (enter value)
102

---

- Tested on: CYP3A4/5
- measurement_protocol: Reversible CYP inhibition in human liver microsomes
- condition_details: human, human liver microsomes, pH 7.4, probe midazolam (mdz), Percent of Control Activity, CYP 3A4/5 (mdz), 0.1 µM, 30-Minute Preincubation
measurement_label: activity at 0.1 µM
# do not omit the unit; it follows the number

For the compound shown here, COc1cccc2[nH]c(C(=O)N[C@@H](CC(C)C)C(=O)N[C@@H](C[C@@H]3CCNC3=O)C(=O)CO)cc12 , give the reported activity at 0.1 µM.
113%

---

- target_entity: CYP3A4/5 (Homo sapiens, UniProt P08684)
- Sequence (P08684 whole entry): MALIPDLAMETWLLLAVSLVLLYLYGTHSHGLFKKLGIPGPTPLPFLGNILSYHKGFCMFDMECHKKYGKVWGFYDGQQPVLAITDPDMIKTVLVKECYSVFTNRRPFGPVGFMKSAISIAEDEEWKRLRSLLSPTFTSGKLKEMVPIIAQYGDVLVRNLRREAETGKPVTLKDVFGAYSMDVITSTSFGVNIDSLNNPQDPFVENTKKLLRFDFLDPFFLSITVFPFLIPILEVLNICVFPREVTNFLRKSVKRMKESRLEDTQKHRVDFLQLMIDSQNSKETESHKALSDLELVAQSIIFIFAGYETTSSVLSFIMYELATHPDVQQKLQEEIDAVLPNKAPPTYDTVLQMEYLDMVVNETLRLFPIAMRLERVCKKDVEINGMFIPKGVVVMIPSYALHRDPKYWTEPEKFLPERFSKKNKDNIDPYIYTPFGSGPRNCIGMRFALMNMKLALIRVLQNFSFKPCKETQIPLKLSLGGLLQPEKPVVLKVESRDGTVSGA
- measurement_protocol: Reversible CYP inhibition in human liver microsomes
measurement_label: pKi
Lab note: report pKi as minus log10 of the concentration in molar units, number only.

Form field: pKi recorded for COc1cccc2[nH]c(C(=O)N[C@@H](CC(C)C)C(=O)N[C@@H](C[C@@H]3CCNC3=O)C(=O)CO)cc12 with CYP3A4/5 (Homo sapiens, UniProt P08684) (enter value)
3.97

---

- System: CYP3A4/5
- measurement_protocol: Reversible CYP inhibition in human liver microsomes
- condition_details: human, human liver microsomes, pH 7.4, probe midazolam (mdz), Percent of Control Activity, CYP 3A4/5 (mdz), 100 µM, 30-Minute Preincubation
measurement_label: activity at 100 µM (%)
Your answer is read as %, so omit the unit and give the number.

For the compound shown here, COc1cccc2[nH]c(C(=O)N[C@@H](CC(C)C)C(=O)N[C@@H](C[C@@H]3CCNC3=O)C(=O)COP(=O)(O)O)cc12 , give the reported activity at 100 µM.
95

---

- target_entity: CYP2C9 (Homo sapiens, UniProt P11712)
- measurement_protocol: Reversible CYP inhibition in human liver microsomes
- condition_details: human, microsomes, pH 7.4, Percent of Control Activity, CYP 2C9, 200 µM, 30-Minute Preincubation
measurement_label: activity at 200 µM (%)
Your answer is read as %, so omit the unit and give the number.

For the molecule shown here, COc1cccc2[nH]c(C(=O)N[C@@H](CC(C)C)C(=O)N[C@@H](C[C@@H]3CCNC3=O)C(=O)CO)cc12 , give the reported activity at 200 µM.
77.1

---

- target_entity: CYP2B6 (Homo sapiens)
- Sequence (P20813 whole entry): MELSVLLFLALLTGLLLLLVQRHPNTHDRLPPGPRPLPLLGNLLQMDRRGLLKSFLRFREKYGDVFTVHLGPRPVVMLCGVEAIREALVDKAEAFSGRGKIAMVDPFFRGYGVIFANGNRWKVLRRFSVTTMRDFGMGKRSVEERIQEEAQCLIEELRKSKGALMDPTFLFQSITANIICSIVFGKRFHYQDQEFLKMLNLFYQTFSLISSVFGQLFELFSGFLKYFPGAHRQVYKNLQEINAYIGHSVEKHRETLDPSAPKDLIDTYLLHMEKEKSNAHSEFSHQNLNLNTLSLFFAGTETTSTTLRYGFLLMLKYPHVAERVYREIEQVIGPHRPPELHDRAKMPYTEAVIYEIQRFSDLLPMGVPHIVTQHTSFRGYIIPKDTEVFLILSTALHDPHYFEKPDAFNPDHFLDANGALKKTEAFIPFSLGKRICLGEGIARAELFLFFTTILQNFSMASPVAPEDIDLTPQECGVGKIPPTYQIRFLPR
- measurement_protocol: Reversible CYP inhibition in human liver microsomes
- Format: in vitro ADME
- condition_details: human, human liver microsomes, pH 7.4, CYP 2B6, 200 µM, Zero-Minute Preincubation; read-out: Percent of Control Activity
measurement_label: activity at 200 µM
# do not omit the unit; it follows the number

For the molecule shown here, COc1cccc2[nH]c(C(=O)N[C@@H](CC(C)C)C(=O)N[C@@H](C[C@@H]3CCNC3=O)C(=O)CO)cc12 [PF-00835231] , give the reported activity at 200 µM.
55.5%

---

- target_entity: CYP1A2 (Homo sapiens, UniProt P05177)
- Sequence (P05177 whole entry): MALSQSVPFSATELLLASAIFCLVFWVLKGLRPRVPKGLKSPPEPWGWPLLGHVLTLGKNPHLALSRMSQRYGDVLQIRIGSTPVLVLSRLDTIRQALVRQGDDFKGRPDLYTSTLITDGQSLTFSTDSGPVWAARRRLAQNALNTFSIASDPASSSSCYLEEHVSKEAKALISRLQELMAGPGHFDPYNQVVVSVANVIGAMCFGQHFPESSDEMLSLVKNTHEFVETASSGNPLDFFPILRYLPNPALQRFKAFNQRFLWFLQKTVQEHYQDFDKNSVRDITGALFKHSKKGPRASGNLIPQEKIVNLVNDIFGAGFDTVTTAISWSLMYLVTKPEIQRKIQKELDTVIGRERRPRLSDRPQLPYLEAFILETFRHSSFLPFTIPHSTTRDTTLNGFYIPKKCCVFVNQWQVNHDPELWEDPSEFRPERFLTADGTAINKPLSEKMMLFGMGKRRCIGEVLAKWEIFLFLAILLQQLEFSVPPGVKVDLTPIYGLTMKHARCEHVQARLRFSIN
- measurement_protocol: Reversible CYP inhibition in human liver microsomes
- condition_details: human, microsomes, pH 7.4, Percent of Control Activity, CYP 1A2, 0.979 µM, 30-Minute Preincubation
measurement_label: activity at 0.979 µM (%)
Your answer is read as %, so omit the unit and give the number.

For the compound shown here, COc1cccc2[nH]c(C(=O)N[C@@H](CC(C)C)C(=O)N[C@@H](C[C@@H]3CCNC3=O)C(=O)CO)cc12 [PF-00835231] , give the reported activity at 0.979 µM.
98.9

Numbers sourced from paper PMC8523698.
